- test_name: Pharmacokinetics, oral administration
- Format: in vivo, Male C57Bl/6J mice
- settings: male, C57Bl/6J, mouse, in vivo, po, 10 mg/kg, oral 10 mg/kg, Avg. of 3 mice
attribute_measured: half-life (min)
Supply the numeric figure in min, leaving out any unit text.

Qu. Can you look up the measured half-life of CC(C)(C)CN(C(=O)CCl)C1CCS(=O)(=O)C1 (stereo not shown) for me?
Ans. 49.2

---

- test_name: Pharmacokinetics, intravenous administration
- Type: in vivo, Male C57Bl/6J mice
- settings: male, C57Bl/6J, mouse, in vivo, iv, 2 mg/kg, Avg. of 3 mice, read-out: MRTINF obs.
attribute_measured: MRT inf (h)
Record the value in h, omitting the unit from your answer.

Qu. Fill blank: measured MRT inf of the molecule CC(C)(C)CN(C(=O)CCl)C1CCS(=O)(=O)C1 (stereo not shown) [Pin1-3] is ____.
Ans. 1.8

---

- test_system: GST-Pin1 (Homo sapiens, UniProt Q13526)
- Sequence (Q13526 whole entry): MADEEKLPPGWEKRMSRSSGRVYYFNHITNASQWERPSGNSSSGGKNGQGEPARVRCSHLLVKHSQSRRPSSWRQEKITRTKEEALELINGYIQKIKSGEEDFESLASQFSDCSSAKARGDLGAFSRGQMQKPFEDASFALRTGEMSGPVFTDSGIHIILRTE
attribute_measured: IC50 (nM)
Write down the numeric answer in nM and omit the unit.

Qu. What IC50 value was documented for this compound, CC(C)(C)CN(C(=O)CCl)C1CCS(=O)(=O)C1 (stereo not shown) ?
Ans. 103

---

- test_name: Pharmacokinetics, intravenous administration
- Assay type: in vivo, Male C57Bl/6J mice
- settings: male, C57Bl/6J, mouse, in vivo, iv, 2 mg/kg, Avg. of 3 mice, read-out: AUCINF obs. (converted)
attribute_measured: AUC(0-inf)
Quick note: unit goes after the number.

Qu. Look up AUC(0-inf): CC(C)(C)CN(C(=O)CCl)C1CCS(=O)(=O)C1 (stereo not shown)
Ans. 6070 ng·h/mL

---

- test_name: Thiol reactivity assay (DTNB)
- Format: physicochemical
- settings: 200 μM compound, pH 7.4, 37° C.
attribute_measured: Reactivity Log k
Format: numeric value only, no unit, no commentary.

Qu. Give the measured Reactivity Log k of O=C(CCl)N(Cc1ccccc1-c1ccccc1)C1CCS(=O)(=O)C1 (stereo not drawn) [Pin1-2-10] .
Ans. −6.89

Qu. Which Reactivity Log k reading was recorded for the compound O=C(CCl)N(Cc1cccc(Cl)c1)C1CCS(=O)(=O)C1 (stereo not drawn) [Pin1-2-11] ?
Ans. −6.94

Qu. Item O=C(CCl)N(c1ccccc1)C1CCS(=O)(=O)C1 (stereo not drawn) [PCM-0102755] has what recorded Reactivity Log k?
Ans. −6.81

Qu. What value of Reactivity Log k has been recorded for this entry: Cc1cccc(CN(C(=O)CCl)C2CCS(=O)(=O)C2)c1 (stereo not drawn) [Pin1-2-6]
Ans. −6.80

Qu. What value of measured Reactivity Log k is listed for O=C(CCl)N(CC1CC1)C1CCS(=O)(=O)C1 (stereo not drawn) [Pin1-3-13] ?
Ans. −6.82

Qu. Quick one: Reactivity Log k of O=C(CCl)N(Cc1cccc(F)c1)C1CCS(=O)(=O)C1 (stereo not drawn) [Pin1-2-5] ?
Ans. −6.88

Qu. Query: Reactivity Log k; subject: CC(C)CN(C(=O)CCl)C1CCS(=O)(=O)C1 (stereo not drawn) [Pin1-3-15]
Ans. −7.11

Qu. Reported Reactivity Log k, compound O=C(CCl)N(CC1CCCCC1)C1CCS(=O)(=O)C1 (stereo not drawn) [Pin1-2-3] : ____
Ans. −6.82

Qu. Using the record for CC1(NC(=O)CCl)CCS(=O)(=O)C1 (stereo not drawn) [PCM-0102230] , report its Reactivity Log k.
Ans. −7.05
